# Tested on: SR leukemia
# TEST: NCI-60 one-dose screen, 48 h
# STUDY_CONDITIONS: 10 µM unless noted
About 83,000 compounds went through this panel and 20% of them were active in at least one assay; those are over-represented in the sample as a whole. Calls of active or inactive are those of the source. The calls were made as follows: active = growth percent below 10; inactive = the rest.
Outcomes: 1 (active), -1 (inactive)

[
  {
    "COMPOUND": "COc1ccc2cc(C(=O)c3coc4ccc(O)cc34)ccc2c1",
    "LABEL_VALUE": -1
  },
  {
    "COMPOUND": "Cc1ccc(Cl)cc1Nc1nc(C(F)(F)F)ccc1C(=O)N/N=C/c1cccnc1",
    "LABEL_VALUE": 1
  },
  {
    "COMPOUND": "O=C(CSc1nc2sc3c(c2c(=O)n1-c1ccccc1)CCCCC3)N/N=C/c1ccc(F)cc1",
    "LABEL_VALUE": -1
  },
  {
    "COMPOUND": "COc1ccc(NC(=O)c2sc3nc(C)c(C(=O)/C=C/c4cccc(OC)c4)cc3c2N)cc1",
    "LABEL_VALUE": 1
  },
  {
    "COMPOUND": "O=C1/C(=C/c2ccc(F)cc2)COc2ccc(O)cc21",
    "LABEL_VALUE": 1
  },
  {
    "COMPOUND": "CN1C(=O)N(C)C2Nn3c(s/c(=C\\c4ccc(C(F)(F)F)cc4)c3=O)=NC21 (stereo not given)",
    "LABEL_VALUE": -1
  },
  {
    "COMPOUND": "Cn1c(-c2ccc(Br)cc2)c(O)c(=O)c2c(F)cccc21",
    "LABEL_VALUE": -1
  },
  {
    "COMPOUND": "C=CCn1c(SCC(=O)NCc2cc(C)c(O)c(C)c2)nc2ccc(Cl)cc2c1=O",
    "LABEL_VALUE": 1
  },
  {
    "COMPOUND": "CCOC(=O)c1cc(-c2ccc([N+](=O)[O-])cc2)n(-c2ccc(C(=O)O)c(O)c2)c1C",
    "LABEL_VALUE": -1
  },
  {
    "COMPOUND": "COc1ccc(-c2nc3c(c(-c4ccccc4)nn3-c3ccccc3)c(-c3ccc(N4CCOCC4)cc3)c2C#N)cc1",
    "LABEL_VALUE": -1
  },
  {
    "COMPOUND": "COP(=O)(OC)C(C)(C)CC(=O)CC(C#N)(C#N)C(C#N)C#N",
    "LABEL_VALUE": -1
  },
  {
    "COMPOUND": "Cc1cc(Cl)ccc1Nc1nc(C(F)(F)F)ccc1C(=O)N/N=C/c1ccc([N+](=O)[O-])cc1",
    "LABEL_VALUE": 1
  },
  {
    "COMPOUND": "Brc1ccc2[nH]cc(-c3nonc3-c3c[nH]c4ccccc34)c2c1",
    "LABEL_VALUE": -1
  },
  {
    "COMPOUND": "O=[N+]([O-])c1ccc(N/N=C(/C(=N/Nc2ccc([N+](=O)[O-])cc2)c2ccccc2)c2ccccc2)cc1",
    "LABEL_VALUE": -1
  },
  {
    "COMPOUND": "c1cc2[nH]ncc2cc1-c1nc2ccc3[nH]ncc3c2c2c1CCCC2",
    "LABEL_VALUE": 1
  },
  {
    "COMPOUND": "CC12CCC3c4ccccc4CCC3(CO1)C2 (stereo not given)",
    "LABEL_VALUE": -1
  },
  {
    "COMPOUND": "NC(=O)CCC(C(=O)O)N1C(=O)c2ccc(O)cc2C1=O (stereo not given)",
    "LABEL_VALUE": -1
  },
  {
    "COMPOUND": "CCN(C(=O)N1CCN(c2cc3c(cc2F)c(=O)c(C(=O)O)cn3C2CC2)CC1)c1nc(-c2ccc(Cl)cc2)cs1",
    "LABEL_VALUE": 1
  },
  {
    "COMPOUND": "C=CCn1c(SCC(=O)Nc2ccc(C(=O)/C=C/c3cc4cc(OC)ccc4nc3Cl)cc2)nnc1-c1ccc(Br)cc1",
    "LABEL_VALUE": -1
  },
  {
    "COMPOUND": "O=C1/C(=C\\c2cn(-c3ccccc3)nc2-c2ccc(-c3cccs3)cc2)CCc2ccccc21",
    "LABEL_VALUE": -1
  }
]
